Source of measurements: ChEMBL document CHEMBL1201862

For each entry below, report its GI50 value.
test system: OVCAR-4; assay: NCI tumour cell line growth inhibition, 48 h
The source made the active and inactive calls. Cut-off read from the data, not from the text of the source: active = GI50 up to about 1.1 µM and inactive = higher.

Some entries whose results are on file:
COC(=O)C(C(=O)C(=O)Nc1nc2ccc([N+](=O)[O-])cc2s1)c1nc2ccc(Cl)cc2nc1O (stereo not drawn)	> 100 µM (inactive)
O=C1/C(=C/c2ccc([N+](=O)[O-])cc2)Sc2scc(-c3cccc([N+](=O)[O-])c3)[n+]21	9.53 µM (inactive)
C[C@]12CC[C@H](O)C=C1CC[C@@H]1[C@@H]2CC[C@]2(C)C(=N/O)/C(=C/c3ccncc3)C[C@@H]12	10.1 µM (inactive)

Okay, here is my list. What is GI50 for each of these?
1. COC(=O)CCC(C)[C@H]1CCC2C3C(C[C@H](OC(C)=O)[C@@]21C)[C@@]1(C)CCC2(C[C@H]1C[C@H]3OC(C)=O)OOC1(CCCC1)OO2 (stereo partly drawn)
2. CC1=NC(=O)CNN1C1=NNC2(C(=O)N1)c1ccccc1-c1ccccc12
3. CC1(CO)OC(n2cnc3c(N)ncnc32)C(O)C1O (stereo not drawn)

A)
["12.6 µM (inactive)", "> 100 µM (inactive)", "> 100 µM (inactive)"]
